These entries and their values trace back to ChEMBL document CHEMBL3217566.

# Tested on: Actinomadura sp. R39
# assay_method_text: Inhibition of Actinomadura R39 D,D-peptidase assessed as inhibition of hydrolysis of thiolester substrate S2d measured as residual activity at 100 uM after 1 hr by Ellman's method
metric_name: Activity (%)
One number for each entry, in %.

These solved cases illustrate the format of a correct answer.
> print(dat)
                                smiles.text  unit.label  test.result
1  CCCCC(=O)N1C[C@H](NC(=O)CCCCCCCCCCC(=O)N[C@H]2CN(C(=O)CCCC)C2=O)C1=O           %           89
2       C=CCCC(=O)N[C@H]1CN(C(=O)CCC=C)C1=O           %           72
3      C=CCCCC(=O)N[C@H]1CN(C(=O)CCC=C)C1=O           %           98
4   C=CCCCCC(=O)N[C@H]1CN(C(=O)CCCCC=C)C1=O           %           80

// below: Activity requested for another molecule
Please look up its Activity: "CCCCCCC(=O)N[C@H]1CN(C(=O)CCCCCCC(=O)N2C[C@H](NC(=O)CCCCCC)C2=O)C1=O" 74
